Data origin, for the record: paper PMC6718736

Tested on: CYP3A4
protocol-notes: CYP3A4 enzyme induction assay in cryopreserved primary human hepatocytes (PHH)
conditions: CYP3A4, PHH
Form field: F2 (one value per entry).

O=C1NC(=O)C(c2ccccc2)(c2ccccc2)N1 [Phenytoin sodium]	1.80 to 16.2 µM
COc1ccc2[nH]c([S+]([O-])Cc3ncc(C)c(OC)c3C)nc2c1 (stereo not drawn)	38.7 to 117 µM

Request: F2, test system CYP3A4, entry COc1ccccc1Oc1c(NS(=O)(=O)c2ccc(C(C)(C)C)cc2)nc(-c2ncccn2)nc1OCCO [Bosentan hydrate]
0.65 to 1.95 µM
